- protocol-summary: In vitro inhibitory activity against Steroid 5-alpha-reductase by using isotope method
outcome-measure: Ki (nM)

>  <compound>
C[C@]12CCC(=O)C(C(F)(F)F)=C1CCC1C2CC[C@]2(C)C(=O)CCC12 (some centres undefined)

>  <Ki (nM)>
95.2

$$$$

(A) CC(C)(C)NC(=O)[C@H]1CCC2C3CCC4=C(C(F)(F)F)C(=O)CC[C@]4(C)C3CC[C@@]21C (some centres undefined)
(B) CC(C)(C)NC(=O)[C@H]1CC[C@H]2[C@@H]3CC[C@H]4NC(=O)C=C[C@]4(C)[C@H]3CC[C@]12C [FINASTERIDE]
# input Of the two listed items, A and B , which carries the larger Ki figure? Record your answer as the label of the chosen record.
# output B
